- System: NCI/ADR-RES ovarian
- protocol-description: NCI tumour cell line growth inhibition, 48 h
Item-by-item account of TGI
endpoint: TGI

INSERT INTO measurements (molecule, observed_measurement) VALUES
  ('N#Cc1c(N)c2c(c(-c3ccccc3)c1-c1ccccc1)C(=O)N(N)C2=O', '> 100 µM'),
  ('Clc1ccc2c(N3CCN(c4ccnc(NC5CCCCC5)n4)CC3)ccnc2c1', '6.66 µM'),
  ('COc1ccc2c(c1)/C(=N/OC(C)=O)c1c-2c(Nc2cccc(/C(C)=N/OC(C)=O)c2)nc2ccccc12', '> 100 µM'),
  ('C=C(Cl)C(Cl)(CBr)CCCC(C)(C)Cl (centres undefined)', '> 74.1 µM'),
  ('CNC(=O)c1ccccc1Nc1cc(Nc2ccc(N3CCOCC3)cc2OC)ncc1C(F)(F)F', '> 68.3 µM'),
  ('Oc1c(Br)cc(Br)c2ccc(Cn3cc(-c4ccc(C(F)(F)F)cc4)nn3)nc12', '71.7 µM'),
  ('COc1ccc(/C(C)=C(\c2ccc(Cl)cc2)c2ccc(OCCN3CCCCC3)cc2)cc1', '9.86 µM'),
  ('C[C@H]1[C@H](N2CCCC2)O[Si](C(C)(C)C)(C(C)(C)C)[C@@H]1C', '> 100 µM'),
  ('CCCCCCCCCCc1c2nc(c(CCCCCCCCCC)c3ccc([nH]3)c(CCCCCCCCCC)c3ccc([nH]3)c(CCCCCCCCCC)c3nc1C=C3)C=C2', '> 100 µM');
